- System: U937
- Design: species or system AML cell lines (8); Primary HTS, single concentration about 10 uM, Cell Titer Glo viability; log10 luminescence, per cent inhibition relative to cycloheximide control
- CONDITION NOTES: 72 h, relative to cycloheximide control, log10 luminescence, inhibitor, U937 %inh, 10 µM
Counter-ions that a name gives are not always drawn.
OBSERVABLE: U937 %inh (%)
One number for each entry, in %.

For orientation, consider the following solved cases.
CCCCNc1cc(C(=O)O)cc(S(N)(=O)=O)c1Oc1ccccc1 [SJ000285893-8, BUMETANIDE] :: 0.292
C[C@]12CC[C@@H]3c4ccc(O)cc4C[C@@H](CCCCCCCCC[S+]([O-])CCCC(F)(F)C(F)(F)F)[C@H]3[C@@H]1CC[C@@H]2O (single isomer, unassigned) [SJ000288293-3] :: -0.5617
Cc1cccc(Nc2ccncc2S(=O)(=O)NC(=O)NC(C)C)c1 [SJ000286085-4, TORSEMIDE] :: 0.4443
CN1CCC(C(=O)Nc2n[nH]c3nc(-c4ccc(O)cc4)c(Br)cc23)CC1 :: 86.11
Nc1ccc(S(=O)(=O)Nc2ccccn2)cc1 [SJ000285852-5, SULFAPYRIDINE] :: 0.04414
CN[C@@H]1[C@H](O[C@H]2[C@H](O[C@H]3[C@H](O)[C@@H](O)[C@H](N=C(N)N)[C@@H](O)[C@@H]3N=C(N)N)O[C@@H](C)[C@]2(O)C=O)O[C@@H](CO)[C@H](O)[C@H]1O [SJ000285297-4, STREPTOMYCIN SULFATE] :: -1.404
CO[C@H]1/C=C/O[C@@]2(C)Oc3c(C)c(O)c4c(O)c(c(/C=N/N5CCN(C)CC5)c(O)c4c3C2=O)NC(=O)/C(C)=C\C=C\[C@H](C)[C@H](O)[C@@H](C)[C@@H](O)[C@@H](C)[C@H](OC(C)=O)[C@@H]1C :: 3.577
COCCOC(=O)C1=C(C)NC(C)=C(C(=O)OC(C)C)C1c1cccc([N+](=O)[O-])c1 (stereo not drawn) :: 7.911
C[C@H]1O[C@@H](O[C@H]2[C@@H](O)C[C@H](O[C@H]3[C@@H](O)C[C@H](O[C@H]4CC[C@@]5(C)[C@H](CC[C@@H]6[C@@H]5CC[C@]5(C)[C@@H](C7=CC(=O)OC7)CC[C@]65O)C4)O[C@@H]3C)O[C@@H]2C)C[C@H](O)[C@@H]1O [SJ000285233-5, DIGITOXIN] :: 78.87
C[C@H]1O[C@@H](O[C@H]2[C@@H](O)C[C@H](O[C@H]3[C@@H](O)C[C@H](O[C@H]4CC[C@@]5(C)[C@H](CC[C@@H]6[C@@H]5CC[C@]5(C)[C@@H](C7=CC(=O)OC7)CC[C@]65O)C4)O[C@@H]3C)O[C@@H]2C)C[C@H](O)[C@@H]1O [SJ000285233-4, DIGITOXIN] :: 77.98

Please give U937 %inh, item by item, for the list that follows.
1. C/C=C(/C(=C/C)c1ccc(O)cc1)c1ccc(O)cc1
2. C[C@]12CC[C@@H]3c4ccc(O)cc4C[C@@H](CCCCCCCCC[S+]([O-])CCCC(F)(F)C(F)(F)F)[C@H]3[C@@H]1CC[C@@H]2O (single isomer, unassigned) [SJ000288293-4]
3. C[C@H](CS)C(=O)N1CCC[C@H]1C(=O)O [SJ000286908-8, CAPTOPRIL]
4. CC(C)C(=O)OCC(=O)[C@@]12O[C@H](C3CCCCC3)O[C@@H]1C[C@H]1[C@@H]3CCC4=CC(=O)C=C[C@]4(C)[C@H]3[C@@H](O)C[C@@]12C [SJ000565158-1, CICLESONIDE]
5. NCCCC[C@H](N[C@@H](CCc1ccccc1)C(=O)O)C(=O)N1CCC[C@H]1C(=O)O
6. COc1cc2c(cc1O)CC[C@@H]1[C@@H]2CC[C@]2(C)[C@@H](O)CC[C@@H]12

1: 2.437; 2: -1.083; 3: -1.359; 4: -2.58; 5: 0.1781; 6: 80.21
